SYSTEM UNDER TEST: T1, SARS-CoV2 Spike ecto foldon Trimer expressed with a C-terminal myc-myc-hexahistidine (SARS-CoV-2, UniProt P0DTC2 14-1213)
T1 construct: extracellular domain
PROTOCOL SUMMARY: SPR Biacore, mAb captured by anti-hFc, 25C
ENDPOINT: log10(kon) (log10 of the value in M⁻¹ s⁻¹)
Values reflect log10 of reported kon (M⁻¹ s⁻¹).

These recorded examples may help you get a feel for the data.
[
  {
    "BINDER": "mAb14285 (antibody, V domains shown) VH: QVQLVQSGAEVKKPGASVKVSCKASGYTFTGYFIHWVRQAPGQGLEWMGWISPISGGTNYAQKFQGRVTVTRDTSITTAYMELSRLTSDDTAVYHCAREGGTWKGDFDYWGQGTLVTVSS VL: QSALTQPASVSGSPGQSITISCTGTSSDVESYNLVSWYQQHPGKAPKLMIYEGSKRPSGVSNRFSGSKSGNTASLTISGLQAEDEADYYCSSYAGSSTWVFGGGTKLTVLG",
    "VALUE": 6.37
  },
  {
    "BINDER": "mAb15165 (antibody, V domains shown) VH: EVQLVESGGGLVQPGGSLRLSCAASGFTVSSNYMSWVRQAPGKGLEWVSAIYSGDSTYYADSVKGRFTISKDNSKNTLYLQMNSLRGEDTAVYYCARLGGALQAYDGAFDYWGQGTLATVSS VL: QSALTQPASVSGSPGQSITISCTGTSSDFGSYNLVSWYQQHPGKAPKLMIYEGNKRPSGVSIRFSGSKSGNTASLTISGLQAEDEADYYCSSYAGSSTWVFGGGTKLTVLG",
    "VALUE": 5.59
  },
  {
    "BINDER": "mAb14312 (antibody, V domains shown) VH: EVQLVESGGGLVQPGGSLRLSCAASGFTVSRSYMTWVRQAPGKGLEWVSVIFTGGRTDHADSVKGRFTISRHNSKNTLYLQMNSLRTEDTAVYYCARVAIVGATGAFDIWGQGTMVTVSS VL: QSVLTQPPSVSGAPGQRVTISCTGSSSNIGAGDDVHWYQQLPGTAPKLLIYGNSNRPSGVPDRFSGSKSGTSASLAITGLQAEDEADYYCQSYDSSLSGSVVFGGGTKLTVLG",
    "VALUE": 6.29
  },
  {
    "BINDER": "mAb15158 (antibody, V domains shown) VH: EVQLVESGGGLVQPGGSLRLSCAASGFSFSSNWMSWVRQAPGKGLEWVGNINQDGSEKYYVDSVEGRFTISRDNAKKSLYLQMNSLRAEDTAVYYCARDLGVLWFGDFVDWGQGALVTVSS VL: DIQMTQSPSSLSASVGDRVTITCRASQAISNSLAWYQQKPGKAPKLLLYAASTLESGVPSRFSGSGSGTDYTLTISSLQPEDFATYYCLQYYGSPRTFGQGTKVEIKR",
    "VALUE": 4.96
  }
]

Could you now look at the following binder, please?
Record mAb15157 (antibody, V domains shown) VH: EVQLVESGGALVQPGGSLRLSCAASGFPFTIYAMTWVRQAPGKGLEWVSVITGSGDSTYYADSVKGRFTISRDNSKNTLYLQMNSLRAEDTAVYYCVKTGEGFFYYYYGMDVWGQGTTVTVSS VL: QSVLTQPPSVSAAPGQKVTISCSGSSSNIGNSYISWYQQLPGTAPKLLIYVNNKRPSGIPDRFSGSKSGTSATLGITGLQTGDEADYYCGTWDSSLSAGVFGSGTKVTVLG . Reported log10(kon): 5.48

Every entry's value here was drawn from patent US20260069689A1.
